assay: Phototoxicity in human HaCaT cells assessed as cell viability at 31.3 uM preincubated for 60 mins followed by 7.5 J/cm2 UVA irradiation and measured after 24 hrs by neutral red uptake assay relative to control; assay type: cell-based; conditions: read-out: Activity
Entries and their measured viability at 24 h, 31.3 µM follow.
MEASURED_PARAMETER: viability at 24 h, 31.3 µM (%)

MOLECULE	UNITS	RECORDED_MEASUREMENT
OCc1ccc(CNc2ncnc3c2ncn3C2CCCO2)o1 (stereo not given)	%	118
Clc1nc(NCC2CCCO2)c2ncn(C3CCCO3)c2n1 (stereo not given)	%	121
c1nc(NCC2CCCO2)c2nc[nH]c2n1 (stereo not given)	%	113
c1csc(CNc2ncnc3c2ncn3C2CCCO2)c1 (stereo not given)	%	128
Clc1nc(NCc2ccco2)c2ncn(C3CCCO3)c2n1 (stereo not given)	%	119

---

assay: Stability of the compound in pH 6 solution at 10^-4 M after 24 hrs by HPLC analysis; assay type: physicochemical; settings: read-out: Stability

MOLECULE	remaining at 24 h, 100 µM
c1nc(NCC2CCCO2)c2ncn(C3CCCO3)c2n1 (stereo not drawn)	100%
Clc1nc(NCc2ccco2)c2ncn(C3CCCO3)c2n1 (stereo not drawn)	100%
c1csc(CNc2ncnc3c2ncn3C2CCCO2)c1 (stereo not drawn)	100%

---

test: Stability of the compound in pH 7 solution at 10^-4 M after 1 hr by HPLC analysis; assay type: physicochemical; settings: read-out: Stability

MOLECULE	remaining at 1 h, 100 µM
c1nc(NCC2CCCO2)c2ncn(C3CCCO3)c2n1 (stereo unspecified)	100%

---

assay: Phototoxicity in human NHDF cells assessed as cell viability at 31.3 uM preincubated for 60 mins followed by 5 J/cm2 UVA irradiation and measured after 24 hrs by neutral red uptake assay relative to control; assay type: cell-based; conditions: read-out: Activity
Entries and their measured viability at 24 h, 31.3 µM follow.

COMPOUND	viability at 24 h, 31.3 µM, %
OCc1ccc(CNc2ncnc3c2ncn3C2CCCO2)o1 (stereo not given)	107
Clc1nc(NCc2ccco2)c2ncn(C3CCCO3)c2n1 (stereo not given)	103
Clc1nc(NCC2CCCO2)c2ncn(C3CCCO3)c2n1 (stereo not given)	103
c1csc(CNc2ncnc3c2ncn3C2CCCO2)c1 (stereo not given)	106
c1nc(NCC2CCCO2)c2nc[nH]c2n1 (stereo not given)	101

---

Entries and their measured viability at 24 h, 7.8 µM follow.
test: Cytotoxicity in human NHDF cells assessed as cell viability at 7.8 uM after 24 hrs by neutral red uptake assay relative to control; assay type: cell-based; conditions: read-out: Activity

COMPOUND	viability at 24 h, 7.8 µM
c1nc(NCC2CCCO2)c2nc[nH]c2n1 (stereo not given)	103%
Clc1nc(NCc2ccco2)c2ncn(C3CCCO3)c2n1 (stereo not given)	104%
OCc1ccc(CNc2ncnc3c2ncn3C2CCCO2)o1 (stereo not given)	105%
c1csc(CNc2ncnc3c2ncn3C2CCCO2)c1 (stereo not given)	103%
Clc1nc(NCC2CCCO2)c2ncn(C3CCCO3)c2n1 (stereo not given)	103%

---

assay: Stability of the compound in pH 5 solution at 10^-4 M after 24 hrs by HPLC analysis; assay type: physicochemical; conditions: read-out: Stability
MEASURED_PARAMETER: remaining at 24 h, 100 µM (%)

COMPOUND	RECORDED_MEASUREMENT
c1nc(NCC2CCCO2)c2ncn(C3CCCO3)c2n1 (stereo not drawn)	92.6
c1csc(CNc2ncnc3c2ncn3C2CCCO2)c1 (stereo not drawn)	94.2
Clc1nc(NCc2ccco2)c2ncn(C3CCCO3)c2n1 (stereo not drawn)	92.9

---

test: Cytotoxicity in human NHDF cells assessed as cell viability at 125 uM after 24 hrs by neutral red uptake assay relative to control; assay type: cell-based; settings: read-out: Activity
Entries and their measured viability at 24 h, 125 µM follow.

COMPOUND	viability at 24 h, 125 µM
c1csc(CNc2ncnc3c2ncn3C2CCCO2)c1 (stereo not given)	108%
c1nc(NCC2CCCO2)c2nc[nH]c2n1 (stereo not given)	101%
Clc1nc(NCC2CCCO2)c2ncn(C3CCCO3)c2n1 (stereo not given)	104%
OCc1ccc(CNc2ncnc3c2ncn3C2CCCO2)o1 (stereo not given)	110%
Clc1nc(NCc2ccco2)c2ncn(C3CCCO3)c2n1 (stereo not given)	101%

---

Entries and their measured viability at 24 h, 62.5 µM follow.
test: Phototoxicity in human NHDF cells assessed as cell viability at 62.5 uM preincubated for 60 mins followed by 5 J/cm2 UVA irradiation and measured after 24 hrs by neutral red uptake assay relative to control; type: cell-based; details: read-out: Activity
MEASURED_PARAMETER: viability at 24 h, 62.5 µM (%)

COMPOUND	UNITS	RECORDED_MEASUREMENT
Clc1nc(NCC2CCCO2)c2ncn(C3CCCO3)c2n1 (stereo not given)	%	105
c1csc(CNc2ncnc3c2ncn3C2CCCO2)c1 (stereo not given)	%	103
c1nc(NCC2CCCO2)c2nc[nH]c2n1 (stereo not given)	%	100
Clc1nc(NCc2ccco2)c2ncn(C3CCCO3)c2n1 (stereo not given)	%	103
OCc1ccc(CNc2ncnc3c2ncn3C2CCCO2)o1 (stereo not given)	%	111

---

Entries and their measured viability at 24 h, 125 µM follow.
assay: Phototoxicity in human HaCaT cells assessed as cell viability at 125 uM preincubated for 60 mins followed by 7.5 J/cm2 UVA irradiation and measured after 24 hrs by neutral red uptake assay relative to control; format: cell-based; conditions: read-out: Activity

COMPOUND	viability at 24 h, 125 µM, %
c1csc(CNc2ncnc3c2ncn3C2CCCO2)c1 (stereo not given)	127
Clc1nc(NCC2CCCO2)c2ncn(C3CCCO3)c2n1 (stereo not given)	126
c1nc(NCC2CCCO2)c2nc[nH]c2n1 (stereo not given)	119
OCc1ccc(CNc2ncnc3c2ncn3C2CCCO2)o1 (stereo not given)	125
Clc1nc(NCc2ccco2)c2ncn(C3CCCO3)c2n1 (stereo not given)	104

---

experiment: Phototoxicity in human NHDF cells assessed as cell viability at 15.6 uM preincubated for 60 mins followed by 5 J/cm2 UVA irradiation and measured after 24 hrs by neutral red uptake assay relative to control; assay type: cell-based; details: read-out: Activity
Entries and their measured viability at 24 h, 15.6 µM follow.
MEASURED_PARAMETER: viability at 24 h, 15.6 µM (%)

MOLECULE	MEASURED_PARAMETER	RECORDED_MEASUREMENT
Clc1nc(NCc2ccco2)c2ncn(C3CCCO3)c2n1 (stereo not given)	viability at 24 h, 15.6 µM	103
c1csc(CNc2ncnc3c2ncn3C2CCCO2)c1 (stereo not given)	viability at 24 h, 15.6 µM	101
Clc1nc(NCC2CCCO2)c2ncn(C3CCCO3)c2n1 (stereo not given)	viability at 24 h, 15.6 µM	100
OCc1ccc(CNc2ncnc3c2ncn3C2CCCO2)o1 (stereo not given)	viability at 24 h, 15.6 µM	102
c1nc(NCC2CCCO2)c2nc[nH]c2n1 (stereo not given)	viability at 24 h, 15.6 µM	100

---

test: Cytotoxicity in human HaCaT cells assessed as cell viability at 15.6 uM after 24 hrs by neutral red uptake assay relative to control; format: cell-based; details: read-out: Activity
Entries and their measured viability at 24 h, 15.6 µM follow.

COMPOUND	viability at 24 h, 15.6 µM
c1csc(CNc2ncnc3c2ncn3C2CCCO2)c1 (stereo not given)	100%
OCc1ccc(CNc2ncnc3c2ncn3C2CCCO2)o1 (stereo not given)	102%
Clc1nc(NCC2CCCO2)c2ncn(C3CCCO3)c2n1 (stereo not given)	104%
c1nc(NCC2CCCO2)c2nc[nH]c2n1 (stereo not given)	102%
Clc1nc(NCc2ccco2)c2ncn(C3CCCO3)c2n1 (stereo not given)	109%

---

test: Cytotoxicity in human NHDF cells assessed as cell viability at 15.6 uM after 24 hrs by neutral red uptake assay relative to control; type: cell-based; details: read-out: Activity

COMPOUND	UNITS	viability at 24 h, 15.6 µM
Clc1nc(NCC2CCCO2)c2ncn(C3CCCO3)c2n1 (stereo not given)	%	101
OCc1ccc(CNc2ncnc3c2ncn3C2CCCO2)o1 (stereo not given)	%	104
Clc1nc(NCc2ccco2)c2ncn(C3CCCO3)c2n1 (stereo not given)	%	104
c1csc(CNc2ncnc3c2ncn3C2CCCO2)c1 (stereo not given)	%	100
c1nc(NCC2CCCO2)c2nc[nH]c2n1 (stereo not given)	%	101

---

assay: Phototoxicity in human NHDF cells assessed as cell viability at 3.9 uM preincubated for 60 mins followed by 5 J/cm2 UVA irradiation and measured after 24 hrs by neutral red uptake assay relative to control; type: cell-based; details: read-out: Activity

COMPOUND	viability at 24 h, 3.9 µM (%)
OCc1ccc(CNc2ncnc3c2ncn3C2CCCO2)o1 (stereo not given)	101
c1nc(NCC2CCCO2)c2nc[nH]c2n1 (stereo not given)	99
Clc1nc(NCC2CCCO2)c2ncn(C3CCCO3)c2n1 (stereo not given)	100
Clc1nc(NCc2ccco2)c2ncn(C3CCCO3)c2n1 (stereo not given)	100
c1csc(CNc2ncnc3c2ncn3C2CCCO2)c1 (stereo not given)	98
